assay.system: Proto-oncogene tyrosine-protein kinase Src (Homo sapiens, UniProt P12931)
Sequence (P12931 2-536 limits assumed): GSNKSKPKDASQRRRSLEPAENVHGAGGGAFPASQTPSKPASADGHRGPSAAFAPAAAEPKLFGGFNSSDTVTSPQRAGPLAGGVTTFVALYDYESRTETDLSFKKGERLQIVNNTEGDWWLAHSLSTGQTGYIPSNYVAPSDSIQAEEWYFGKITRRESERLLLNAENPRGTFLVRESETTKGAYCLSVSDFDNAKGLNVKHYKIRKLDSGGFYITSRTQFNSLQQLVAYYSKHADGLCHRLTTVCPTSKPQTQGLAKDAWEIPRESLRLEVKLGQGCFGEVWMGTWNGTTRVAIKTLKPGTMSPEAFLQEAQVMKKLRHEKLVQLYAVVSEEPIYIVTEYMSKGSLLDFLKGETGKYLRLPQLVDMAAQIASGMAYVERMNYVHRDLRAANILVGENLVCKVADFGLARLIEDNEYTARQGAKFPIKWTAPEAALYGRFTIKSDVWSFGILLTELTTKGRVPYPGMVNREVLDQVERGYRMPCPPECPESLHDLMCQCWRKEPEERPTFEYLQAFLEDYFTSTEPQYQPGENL
protocol: Binding affinity was determined on Src protein tyrosine kinase SH2 domain using fluorescence polarization assay with 2% DMSO in buffer solution
pIC50: −log10 of the molar value.
Tag: class 1 if measured pIC50 is not below 5, class 0 if it is.

compound | assay.system | class
CC[C@H](C)[C@H](NC(=O)[C@H](CCC(=O)O)NC(=O)[C@H](CCC(=O)O)NC(=O)[C@@H](N)Cc1ccc(OP(=O)(O)O)cc1)C(=O)O | Proto-oncogene tyrosine-protein kinase Src (Homo sapiens, UniProt P12931) | class 1
COc1ccc(C2Sc3ccccc3N(CC(=O)NCc3cccc4ccccc34)C(=O)C2NC(=O)Cc2ccc(OP(=O)(O)OCc3ccccc3)cc2)cc1 (stereo unspecified) | Proto-oncogene tyrosine-protein kinase Src (Homo sapiens, UniProt P12931) | class 1
CC(C)(C)OC(=O)N[C@@H](Cc1ccc(OP(=O)(O)O)cc1)C(=O)NC1CSCCN(CCCC2CCCCC2)C1=O (stereo partly specified) | Proto-oncogene tyrosine-protein kinase Src (Homo sapiens, UniProt P12931) | class 0
COc1ccc(C2Sc3ccccc3N(CCCC3CCCCC3)C(=O)C2NC(=O)[C@H](Cc2ccc(OP(=O)(O)OCc3ccccc3)cc2)NC(=O)OC(C)(C)C)cc1 (stereo partly specified) | Proto-oncogene tyrosine-protein kinase Src (Homo sapiens, UniProt P12931) | class 1
COc1ccc(C2Sc3ccccc3N(CC(=O)NCc3cccc4ccccc34)C(=O)C2NC(=O)[C@H](Cc2ccc(OP(=O)(O)OCc3ccccc3)cc2)NC(=O)OC(C)(C)C)cc1 (stereo in doubt; 3a) | Proto-oncogene tyrosine-protein kinase Src (Homo sapiens, UniProt P12931) | class 0

// next entry
Q: Dear colleague, could you confirm whether COc1ccc(C2Sc3ccccc3N(CC(=O)Nc3ccccc3OC)C(=O)C2NC(=O)[C@H](Cc2ccc(OP(=O)(O)OCc3ccccc3)cc2)NC(=O)OC(C)(C)C)cc1 (stereo partly specified) has pIC50 at or above 5?
A: class 0

----------
pIC50 by entry:
assay.system: Proto-oncogene tyrosine-protein kinase Src (Homo sapiens, UniProt P12931)
protocol: Binding affinity for Src protein tyrosine kinase SH2 domain
pIC50 is defined as minus the log10 of a concentration measured in mol/L.

Consider the worked cases shown below.
molecule | pIC50
CC[C@H](C)[C@H](NC(=O)[C@H](CCC(=O)O)NC(=O)[C@H](CCC(=O)O)NC(=O)[C@@H](N)Cc1ccc(OP(=O)(O)O)cc1)C(=O)O | 6.82
CC(C)(C)OC(=O)N[C@@H](Cc1ccc(OP(=O)(O)O)cc1)C(=O)NC1CSc2ccccc2N(CCCC2CCCCC2)C1=O (stereo partly specified) | 6.00
CC(C)(C)OC(=O)N[C@@H](Cc1ccc(OP(=O)(O)O)cc1)C(=O)NC1CSCCN(CCCC2CCCCC2)C1=O (stereo partly specified) | 5.85
CC(C)(C)OC(=O)N[C@@H](Cc1ccc(OP(=O)(O)OCc2ccccc2)cc1)C(=O)NC1CSc2ccccc2N(CCCC2CCCCC2)C1=O (stereo partly specified) | 4.89

Q: Look at this molecule and give its reported pIC50. CC(C)(C)OC(=O)N[C@H](Cc1ccc(OP(=O)(O)O)cc1)C(=O)NC1CSc2ccccc2N(CCCC2CCCCC2)C1=O (stereo partly specified)
A: 4.74
